Tested on: HL-60
Assay: Antiproliferative activity against human HL60 cells after 48 hrs by MTT assay
Format: functional, cell-based
Details: HL-60, 48 h
pIC50: −log10 of the molar value.
// pIC50 lookup, one value per entry
quantity.measured: pIC50

> print(dat)
                                   compound  measured
1  COc1cc(C2C=C(c3ccccc3)Nc3ncnn32)cc(OC)c1OC (stereo not given)      6.77
2  COc1ccc(/C=C(/C(=O)c2cc(OC)c(OC)c(OC)c2)c2nc3ccccc3o2)cc1      5.62
3  COc1cc(C2C=C(c3cccc(NC(C)=O)c3)Nc3ncnn32)cc(OC)c1OC (stereo not given)      6.48
4  COc1cc(C(=O)c2c(C)cn3c(CCC#N)cccc23)cc(OC)c1OC      5.85
5      COc1cc(C(=O)N2CCc3ccccc32)cc(OC)c1OC      5.70

====

Test system: HL-60
Assay: Antiproliferative activity against human HL60 cells after 48 hrs by MTT assay
Type: functional, cell-based
Settings: HL-60, 48 h
Label key: Y means IC50 under 600 nM; N means IC50 of 600 nM or more.

> print(dat)
                                    compound  group
 1  COc1cc(C2C=C(c3ccc(C)cc3)Nc3ncnn32)cc(OC)c1OC (stereo not drawn)      Y
 2  COc1ccc(C2=CC(c3cc(OC)c(OC)c(OC)c3)n3ncnc3N2)cc1 (stereo not drawn)      Y
 3  COc1cc(/C=C(/C(=O)O)c2ccc(-c3ccccc3)cc2)cc(OC)c1OC      N
 4     COc1cc(C(=O)N2CCCc3ccccc32)cc(OC)c1OC      N
 5  COc1cc(C(=O)/C(=C/c2cccnc2)c2nc3ccccc3o2)cc(OC)c1OC      N
 6  COc1ccc(C2=CC(c3cc(OC)c(OC)c(OC)c3)n3ncnc3N2)cc1OC (stereo not drawn)      Y
 7  COc1ccccc1NC(=O)CSc1nnc(-c2cc(OC)c(OC)c(OC)c2)n1-c1ccc(C)cc1      N
 8  COc1cc(C2C=C(c3ccc(Cl)cc3)Nc3ncnn32)cc(OC)c1OC (stereo not drawn)      Y
 9  COc1cc(C2C=C(c3cccs3)Nc3ncnn32)cc(OC)c1OC (stereo not drawn)      Y
10  COc1cc(C(=O)N2c3ccccc3CC2C)cc(OC)c1OC (stereo not drawn)      N
11  CCc1ccc(C2=CC(c3cc(OC)c(OC)c(OC)c3)n3ncnc3N2)cc1 (stereo not drawn)      Y
12  COc1cc(/C=C(/C(=O)c2cc(OC)c(OC)c(OC)c2)c2nc3ccccc3o2)cc(OC)c1OC      N

The origin of these recorded values is ChEMBL document CHEMBL1250532.
